# Measured target: HLA-DR DRB1*0101 (human)
# Experiment: radioligand inhibition, purified HLA-DR
Assay readout: IC50 (nM)
Answers are plain numbers, in nM.

The cases that follow already have their IC50 on record.
ELPLQALVMGEGTCE [Peptide 9019.0182] | 1500
LPRVGCPALPLPPPP [Peptide 9919.0173] | 1910

Let us move to another entry and its IC50.
Can you look up the measured IC50 of GATLERPKTLSPGKN [Peptide 9019.0102] for me?
1810
